# Protocol Summary: chemical genetic growth profiling, strain panel (AID 1159580);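 note: tested at 20 µM; growth read once vehicle control cultures reached saturation at 30 °C; lower values mean less growth of the strain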
# Setup Conditions: S. cerevisiae deletion strains, growth OD, locus YMR263W, strain SAP30
Among all 5,500 compounds or so, about 2,000 (36%) were called active. Another 18% or so got no clear call; they are omitted. Cut-off read from the data, not from the text of the source: active = normalized growth mostly below about 0.91 (no sharp cut-off); inconclusive = no clear call, values can overlap the other calls; inactive = mostly above about 0.92. Some of the results follow.
Valid outcomes are listed here; reply with one: active, inactive

A selection of reference data follows.
Molecule	Label Value
C=CCN1CCC23c4c5ccc(O)c4O[C@H]2C(=O)CC[C@@]3(O)C1C5 (some centres undefined)	inactive
CCOC(=O)c1csc(N/N=C2/CCCc3ccccc32)n1	active
COc1cc(O)c(C(=O)O)c(O)c1	inactive
CC(C)=CCc1c(O)cc2occ(-c3ccc4c(c3)OCO4)c(=O)c2c1O	inactive
COc1ccc(/C(C#N)=C/c2ccc(OC)c(OC)c2)cc1	inactive

Q. What outcome does the record of this test show for `COc1ccc(/C=C(\C#N)c2nc3ccccc3[nH]2)cc1OC` ?
A. inactive

Q. Per the records of this test, what outcome belongs to CCCC(=O)Nc1ncnc2c1ncn2C1O[C@@H]2COP(=O)(O)O[C@H]2[C@H]1OC(=O)CCC (some centres undefined) ?
A. inactive

Q. In this assay, the call recorded for `CSc1sc(-c2ccn[nH]2)c(-c2ccccc2)c1C#N` was what?
A. inactive

Q. Which outcome was entered for the molecule `CCc1cccc(C)c1NC(=O)N1CCN(C(=O)OC(C)(C)C)CC1` in this test?
A. inactive

Q. Write down the call the test reported for this molecule. Item: COc1ccc2c3c1O[C@H]1C(=O)CC[C@@]4(O)C(C2)N(CC2CC2)CCC314 (some centres undefined)
A. inactive
